Would you mind telling me the reported normalized growth of each entry?
assay: chemical genetic growth profiling, strain panel (AID 1159580);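 also: tested at 20 µM; growth read once vehicle control cultures reached saturation at 30 °C; 1 = growth at the plate median or of vehicle wells; lower values mean less growth of the strain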; conditions: S. cerevisiae deletion strains, growth OD, locus YJL154C, strain vps35, stronger effect = lower value
Screen size: about 5,500 compounds; about 2,000 (36%) were called active. Another 18% or so got no clear call; they are omitted. The list shows a part of the results.
Keep the answer to the number alone.

Req: Sample "CC(=O)OC(C)(C)[C@@H]1Cc2cc3ccc(=O)oc3cc2O1" — what was its normalized growth?
Resp: 0.966

Req: Name the reported normalized growth value associated with the compound "COc1ccc2c(c1)O[C@@H]1COc3cc(OC)c(OC)cc3[C@@H]1C2=O"
Resp: 0.982

Req: Please give the measured normalized growth for this compound: "COc1cc(NS(=O)(=O)c2ccc(N)cc2)nc(OC)n1"
Resp: 0.965

Req: Give the measured normalized growth of "COc1cc2c(cc1OC)[C@@H]1C(=O)c3ccc(O)c(CC=C(C)C)c3O[C@@H]1CO2" .
Resp: 1.01

Req: Looking for the measured normalized growth of CCOC(=O)C(=O)C1(C(=O)OCC)Oc2cc(OC)cc(OC)c2C(=O)C1c1ccccc1 (stereo not given) , can you help?
Resp: 0.968
